Recorded values, source patent US11584714B2.

# system tested: MASP-2 (CCP1-CCP2-SP) (Homo sapiens (Human), UniProt O00187)
# Sequence (O00187 445-686): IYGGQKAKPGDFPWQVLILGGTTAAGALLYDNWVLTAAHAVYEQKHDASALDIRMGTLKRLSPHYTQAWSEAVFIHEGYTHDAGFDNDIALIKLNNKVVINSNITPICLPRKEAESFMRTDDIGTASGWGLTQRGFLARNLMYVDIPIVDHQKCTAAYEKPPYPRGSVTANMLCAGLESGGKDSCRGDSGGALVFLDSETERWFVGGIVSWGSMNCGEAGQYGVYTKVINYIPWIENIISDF
# assay method text: biochemical
# Type: biochemical
# setup conditions: MASP-2 Ki (μM)
experimental endpoint: Ki

Task: Missing value: Ki, MASP-2 (CCP1-CCP2-SP) (Homo sapiens (Human), UniProt O00187), entry `C[C@H](NC(=O)[C@H]1C[C@H](c2ccccc2)CN1)C(=O)NCc1ccc(C(=N)NC(=O)OCC(Cl)(Cl)Cl)cc1` . Fill in?
Output: 2.5 to 10 µM

----------
# system tested: UniProt:O00187
# assay method text: biochemical
# Assay type: biochemical
# setup conditions: MASP-2 inhibition versus thrombin
experimental endpoint: MASP-2 vs. thrombin selectivity

[
  {
    "compound": "C[C@H](NC(=O)[C@H](N)CCc1ccccc1F)C(=O)NCc1ccc(C(=N)N)cc1 [compound 1049]",
    "experimental value": "** (5.0 to 25-fold)"
  },
  {
    "compound": "C[C@H](NC(=O)[C@H](N)Cc1ccc2ccccc2c1)C(=O)NCc1ccc(C(=N)N)cc1 [compound 1093]",
    "experimental value": "−− (less than 1.0-fold)"
  },
  {
    "compound": "C[C@H](NC(=O)[C@H](NCC(=O)O)C1CCCCC1)C(=O)NCc1ccc(C(=N)N)cc1 [compound 1094]",
    "experimental value": "−− (less than 1.0-fold)"
  },
  {
    "compound": "C[C@H](NC(=O)[C@H](N)CCc1ccc(Cl)cc1)C(=O)NCc1ccc(C(=N)N)cc1 [compound 1080]",
    "experimental value": "** (5.0 to 25-fold)"
  }
]
